Each entry below carries its reported Kd.
- System tested: T1, HLA-A2/MAGE-A4p230-239 complex (human)
- T1 construct: also called HLA-A2/MAGEp230-239
- Assay explanation: SPR Biacore T200, antibody captured by anti-human Fc, pMHC complex as analyte, 25 C, 1:1 Langmuir fit
I only need the number, in nM, no unit after it.

Query string: Sample Molecule K (antibody, V domains shown, also called 057D03 IgG antibody) VH: AQLVESGGGLVQPGGSLRLSCAASAYFSFKAMSWVRQAPGKGLEWVGSISPSGGSTYYNDNVLGRFTISRDNSKNTLYLQMNSLRAEDTAVYYCAKDVGFFDEWGQGTLVTVSS VL: DIQMTQSPSSLSASVGDRVTITCRASQSISSYLAWYQQKPGKAPKLLIYDASIRDIGVPSRFSGSGSGTDFTLTISSLQPEDFATYYCQQYSSYPYTFGQGTKLEIK — what was its Kd?
Result string: 15.7

More entries:
Query string: Need Kd, item Molecule H (antibody, V domains shown, also called 007A09 IgG antibody) VH: YVQLVESGGGLVKPGGSLRLSCAAPLPFTGLDMSWVRQAPGKGLEWVGSISPKGGSTYYNDNVLGRFTISRDNSKNTLYLQMNSLRAEDTAVYYCARDWGFFDLWGQGTLVTVSS VL: AIQMTQSPSSLSASVGDRVTITCRASQSISNYLAWYQQKPGKAPKLLIYDANAHENDVPSRFSGSGSGTDFTLTISSLQPEDFATYYCQQYSSHPYTFGQGTKLEIK
Result string: 17.3

Query string: Recorded Kd for Molecule I (antibody, V domains shown, also called 007D10 IgG antibody) VH: YPQLVESGGGLVKPGGSLRLSCAARYPFTRLDMSWVRQAPGKGLEWVGSISPKGGSTYYNDNVLGRFTISRDNSKNTLYLQMNSLRAEDTAVYYCARDWGFFDNWGQGTLVTVSS VL: AIQMTQSPSSLSASVGDRVTITCRASQSISNYLAWYQQKPGKAPKLLIYNASHPEYDVPSRFSGSGSGTDFTLTISSLQPEDFATYYCQQYSSHPYTFGQGTKLEIK , please?
Result string: 96.4

Query string: Need Kd, item Molecule J (antibody, V domains shown, also called 057B04 IgG antibody) VH: TQQLVESGGGLVQPGGSLRLSCAASGFSFSFDTMSWVRQAPGKGLEWVGSISPSGGSTYYNDNVLGRFTISRDNSKNTLYLQMNSLRAEDTAVYYCARDHGYFDMWGQGTLVTVSS VL: DIQMTQSPSSLSASVGDRVTITCRASQSISSYLAWYQQKPGKAPKLLIYDASWLELGVPSRFSGSGSGTDFTLTISSLQPEDFATYYCQQYSSYPYTFGQGTKLEIK
Result string: 40.7
